Hi, quick share: literature pIC50 data for Squalene synthase (Rattus norvegicus), several sources combined.
Biological target: Squalene synthase (Rattus norvegicus)
Sequence (Q02769 whole entry): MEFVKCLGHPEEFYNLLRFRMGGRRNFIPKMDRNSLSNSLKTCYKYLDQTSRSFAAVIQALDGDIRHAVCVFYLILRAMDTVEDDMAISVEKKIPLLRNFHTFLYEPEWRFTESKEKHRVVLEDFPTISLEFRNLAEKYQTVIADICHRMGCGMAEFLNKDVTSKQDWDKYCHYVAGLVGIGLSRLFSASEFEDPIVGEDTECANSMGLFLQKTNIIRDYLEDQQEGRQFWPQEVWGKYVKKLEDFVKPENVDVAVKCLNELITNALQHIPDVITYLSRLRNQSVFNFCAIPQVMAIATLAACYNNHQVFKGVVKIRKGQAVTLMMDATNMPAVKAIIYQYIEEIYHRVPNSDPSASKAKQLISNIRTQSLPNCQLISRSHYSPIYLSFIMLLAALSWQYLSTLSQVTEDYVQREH
pIC50: −log10 of the molar value.

Solved entries:
Smi: C=C(CC[C@]12O[C@H](C(=O)O)[C@@](O)(C(=O)O)[C@](C(=O)OC)(O1)[C@H](O)[C@H]2O)[C@@H](OC(C)=O)[C@H](C)Cc1ccccc1
pIC50: < 6.30
//
Smi: CC(C)NCCCOc1ccc(-c2cccnc2)cc1
pIC50: < 5.60
//
Smi: CSc1ccccc1N(C)CC(=O)c1ccc(-c2ccccc2)cc1
pIC50: < 4.30

Now let's try a different one.
Exercise: Please indicate pIC50 recorded for C=C(CC[C@]12O[C@H](C(=O)OC)[C@@](O)(C(=O)OC)[C@](C(=O)OC)(O1)[C@H](OC(=O)/C=C/[C@@H](C)C[C@@H](C)CC)[C@H]2O)[C@@H](OC(C)=O)[C@H](C)Cc1ccccc1
Solution: < 6.30
